Recorded MIC90, one value per entry.
System: Staphylococcus aureus (No. 420)
Experiment: In vitro anti-bacterial activity (MIC90), methicillin-resistant Staphylococcus aureus isolates
Assay type: cell-based
Conditions: methicillin-resistant Staphylococcus aureus (No. 420)
Description: In yet another aspect, said another quinolone has a MIC90 value for a Gram-negative bacterium that is lower than that of the fluoroquinolone having Formula I, II, III, IV, V, VI, VII, or VIII for the same bacterium, said fluoroquinolone being included in the composition. MIC90 is the minimum concentration of the active compound required to inhibit ninety percent of the growth of a specified pathogen, in μg/ml. […]
Expressed in µg/mL, but write only the number.

These recorded examples may help you get a feel for the data.
{"columns": ["molecule", "MIC90, µg/mL"],
 "data": [
  ["CC1CCc2c(N3CCC(O)CC3)c(F)cc3c(=O)c(C(=O)O)cn1c23 (stereo not shown)", 0.78],
  ["N[C@@H]1CCCCN(c2c(F)cc3c(=O)c(C(=O)O)cn(C4CC4)c3c2Cl)C1", 0.1],
  ["CC1COc2c(N3CCN(C)CC3)c(F)cc3c(=O)c(C(=O)O)cn1c23 (stereo not shown)", 1.56]
]}

Read the next record carefully.
(Q) Which MIC90 value belongs to `C[C@@H]1CN(c2c(F)c(N)c3c(=O)c(C(=O)O)cn(C4CC4)c3c2F)C[C@H](C)N1` ?
(A) 0.78
